Recorded z-score by entry
# Target Or System: Metabotropic glutamate receptor 8 (Rattus norvegicus) (UniProt P70579)
# Sequence (P70579 whole entry, looked up): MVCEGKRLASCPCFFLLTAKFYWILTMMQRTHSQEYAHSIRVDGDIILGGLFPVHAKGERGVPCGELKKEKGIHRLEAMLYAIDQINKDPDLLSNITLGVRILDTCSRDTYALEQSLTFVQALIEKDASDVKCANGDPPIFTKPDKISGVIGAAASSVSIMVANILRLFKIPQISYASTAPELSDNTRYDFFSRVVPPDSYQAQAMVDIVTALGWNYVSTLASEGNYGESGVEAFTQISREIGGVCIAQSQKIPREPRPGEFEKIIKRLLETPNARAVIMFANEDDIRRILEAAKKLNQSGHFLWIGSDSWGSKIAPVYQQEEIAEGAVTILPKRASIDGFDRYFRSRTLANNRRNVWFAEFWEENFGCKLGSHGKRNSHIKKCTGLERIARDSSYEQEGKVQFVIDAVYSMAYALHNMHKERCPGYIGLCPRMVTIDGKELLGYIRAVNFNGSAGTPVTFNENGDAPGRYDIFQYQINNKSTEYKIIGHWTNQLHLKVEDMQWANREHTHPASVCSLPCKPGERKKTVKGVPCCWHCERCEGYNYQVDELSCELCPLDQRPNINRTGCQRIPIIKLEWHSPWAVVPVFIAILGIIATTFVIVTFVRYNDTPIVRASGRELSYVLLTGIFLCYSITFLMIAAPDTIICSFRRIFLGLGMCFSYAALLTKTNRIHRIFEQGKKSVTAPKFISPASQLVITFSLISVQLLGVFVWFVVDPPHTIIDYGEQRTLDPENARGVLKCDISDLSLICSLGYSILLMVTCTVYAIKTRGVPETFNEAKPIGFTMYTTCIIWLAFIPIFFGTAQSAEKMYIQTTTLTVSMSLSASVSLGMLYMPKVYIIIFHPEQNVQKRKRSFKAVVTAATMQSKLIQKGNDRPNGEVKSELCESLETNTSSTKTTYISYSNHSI
# Measurement Notes: mGluR8 Gi/Go-coupled signaling modulation – cell-based, rat, thallium flux, HTS, primary screen (AID 488969)
# Condition Notes: HEK293 rat mGluR8, GIRK (G protein-gated inwardly rectifying potassium channel) thallium flux, FluoZin2; at 10 µM; stronger effect = higher value
The full ranking holds about 110,000 compounds; the median of “z-score” is about -0.1, and the highest 2% start at about 2. This excerpt belongs to a sample that is enriched for the highest values. Calls of active or inactive are those of the source.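 The calls were made as follows: active = z-score in the third read window above 3 or below -3; inactive = the rest.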

{"Compound": "Clc1ccc2c(c1)C(c1ccccc1Cl)=NCc1nnc(N3CCN(CCSc4ccccc4)CC3)n1-2", "Meas Value": -0.487}
{"Compound": "O=c1c2ccccc2nc(CSc2ncnc3nc[nH]c23)n1-c1ccc(Cl)c(Cl)c1", "Meas Value": -0.202}
{"Compound": "CSCc1nnc2n1-c1ccc(Cl)cc1C(c1ccccc1)=NC2", "Meas Value": -0.724}

Fill in: z-score of CCCCN1C(=N)C(CC)(CC)C(=O)NC1=O is ___
-0.0121

# z-score lookup, item S=C1CN=C(c2ccccc2Cl)c2cc(Cl)ccc2N1
14.6 (active)

Request the reported z-score associated with CC(=NCC1CCCO1)c1c(O)n(-c2ccc(Cl)cc2)c(=O)[nH]c1=O (stereo not drawn)
-1.18

Reported z-score, compound Cc1nn(Cc2ccccc2)c(C)c1C=C1C(=O)NC(=O)NC1=O : ____
2.1

Would you kindly share the measured z-score for CCC(CC)C1C(C#N)=C(N)Oc2c1c(=O)oc1ccccc21 (stereo not drawn) ?
-0.103

Can you look up the measured z-score of CCS(=O)(=O)NCc1nnc2n1-c1ccc(Cl)cc1C(c1ccccc1)=NC2 for me?
-0.148

# get_value(readout='z-score', item= c1cc2c(cc1CCNC1CCCCCC1)OCO2 )
0.232

Fill in: z-score of COC(=NC1CCCCC1)C(O)c1c[nH]c2ccccc12 (stereo not drawn) is ___
-0.119

// returns reported z-score for input CC(=NCC1CCCO1)c1c(O)n(-c2ccccc2)c(=O)[nH]c1=O (stereo not drawn)
0.0257

# lookup: z-score of O=C(NC(Oc1ccccc1)C(Cl)(Cl)Cl)c1ccccc1 (stereo not drawn)
-0.149

May I ask what z-score has been recorded for Cn1cccc1CNCCc1ccc(F)cc1 ?
-0.24

Recorded z-score for CN1CCN(Cc2nnc3n2-c2ccc(Cl)cc2C(c2ccccc2)=NC3)CC1 , please?
-0.238

Give its z-score value. Item: Cc1noc(C)c1C(=O)N1CCC2(CC1)OCCO2
-0.294

# get_value(readout='z-score', item= CC(=NCC1CCCO1)c1c(O)n(-c2ccc(C)cc2)c(=O)[nH]c1=O (stereo not drawn) )
2.68

Query: z-score; subject: CCOC(=O)c1c(C)n(CCOC)c2ccc(O)cc12
0.821

Sample c1cc2c(cc1CCNC1C3CC4CC(C3)CC1C4)OCO2 (stereo not drawn) — what was its z-score?
2.3
